- experimentalSystem: Dopamine D2 receptor (Homo sapiens)
- assaySummary: Binding affinity using [3H]spiperone against cloned human Dopamine receptor D2L expressed in CHO-K1 cells
Please go through the items and note down their Ki.

So what's the measured Ki for this one? Cc1ccc(N2CCN(Cc3ccc4ccc(=O)oc4c3)CC2)cc1C 0.433 µM

Given the compound Cc1ccc(N2CCN(Cc3ccc4oc(=O)ccc4c3)CC2)cc1 , what is its reported Ki? 5.836 µM

Suppose we examine the compound O=c1ccc2ccc(CN3CCN(c4ccccc4)CC3)cc2o1 ; what Ki value has been reported? 5.3 µM

Could you share which Ki value was measured for Cc1ccccc1N1CCN(Cc2ccc3ccc(=O)oc3c2)CC1 ? 1.94 µM

Which measured Ki value corresponds to O=c1ccc2ccc(CN3CC=C(c4ccccc4)CC3)cc2o1 ? 0.121 µM

Query: Ki; subject: Cc1ccc(N2CCN(Cc3ccc4ccc(=O)oc4c3)CC2)cc1Cl 5.882 µM

Need Ki, item Cc1cccc(N2CCN(Cc3ccc4ccc(=O)oc4c3)CC2)c1 4.4 µM

---

- experimentalSystem: D(4) dopamine receptor (Homo sapiens, UniProt P21917)
- Sequence (P21917 whole entry): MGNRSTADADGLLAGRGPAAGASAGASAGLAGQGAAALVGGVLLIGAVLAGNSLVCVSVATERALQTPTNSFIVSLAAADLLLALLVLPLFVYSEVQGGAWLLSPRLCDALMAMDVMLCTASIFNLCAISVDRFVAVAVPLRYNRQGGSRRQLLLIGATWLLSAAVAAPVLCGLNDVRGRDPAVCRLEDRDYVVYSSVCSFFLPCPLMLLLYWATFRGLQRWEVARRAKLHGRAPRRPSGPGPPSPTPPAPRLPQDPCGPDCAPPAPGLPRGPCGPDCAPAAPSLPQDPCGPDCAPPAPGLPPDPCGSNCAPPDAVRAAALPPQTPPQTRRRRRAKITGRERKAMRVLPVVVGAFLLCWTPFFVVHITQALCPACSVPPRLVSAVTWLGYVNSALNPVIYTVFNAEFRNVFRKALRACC
Assignment: determine reported pKi for the given compounds.
pKi (log units): -log10 of the concentration in mol/L.

Look up pKi: Cc1ccc(N2CCN(Cc3ccc4ccc(=O)oc4c3)CC2)cc1Cl 8.16

Please give the measured pKi for this compound: O=c1ccc2ccc(CN3CC=C(c4ccccc4)CC3)cc2o1 8.36

Which pKi is reported for this compound? Cc1ccc(N2CCN(Cc3ccc4ccc(=O)oc4c3)CC2)cc1C 7.85

Which pKi value is on record for Cc1cccc(N2CCN(Cc3ccc4oc(=O)ccc4c3)CC2)c1 ? 7.13

Given the entry CCN(CCNc1ccccc1)Cc1ccc2ccc(=O)oc2c1 , report its measured pKi. 6.39

Which measured pKi value corresponds to Cc1ccccc1N1CCN(Cc2ccc3ccc(=O)oc3c2)CC1 ? 7.80

---

Sequence of the target: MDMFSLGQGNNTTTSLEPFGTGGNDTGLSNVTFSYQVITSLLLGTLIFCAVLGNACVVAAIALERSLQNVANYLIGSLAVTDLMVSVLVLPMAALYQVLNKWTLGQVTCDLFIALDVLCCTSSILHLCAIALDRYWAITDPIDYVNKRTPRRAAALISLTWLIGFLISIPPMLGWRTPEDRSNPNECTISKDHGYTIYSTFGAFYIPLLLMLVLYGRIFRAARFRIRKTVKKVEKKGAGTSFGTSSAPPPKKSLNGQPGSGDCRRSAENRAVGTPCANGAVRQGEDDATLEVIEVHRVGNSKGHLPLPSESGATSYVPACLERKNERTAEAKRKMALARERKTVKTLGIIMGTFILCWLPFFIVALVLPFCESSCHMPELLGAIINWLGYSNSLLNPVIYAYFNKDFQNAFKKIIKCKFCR
experimentalEndpoint: pKi
# pKi is unitless: minus log10 of the molar concentration; print number only

What does the data say about its pKi? Entry: O=c1ccc2ccc(CNCCNc3ccccc3)cc2o1 5.43
